- System: A498 renal
- Test method notes: NCI-60 one-dose screen, 48 h (100 = growth as untreated, 0 = no growth, -100 = all killed)
- Protocol conditions: 10 µM
Compounds without any hit were thinned out: in the full panel of roughly 83,000, 20% have a hit.

Molecule	growth / %
CN(C)CCNC(=O)c1cccn2c(=O)c3cc4ccccc4cc3nc12	-56.7
O=C(/C(=C/c1ccccc1)CN1CCCCC1)c1ccccc1	-77.1
Clc1ccc2c(NCCCNc3nccc(Nc4ccc(Br)cc4)n3)ccnc2c1	19.6
O=C(Nc1nc2ccccc2s1)Nc1ccc([N+](=O)[O-])cc1Cl	106
COc1cc(Cl)cc(-c2nn(-c3cccc(NC(=O)Nc4ccc(Cl)c(Cl)c4)c3)cc2-c2ccncc2)c1	-9.54
COc1cc(CNc2ccccc2C(=O)N2CCN(C(=O)c3cc(-c4cc(OC)c(OC)c(OC)c4)n4nc(-c5ccccc5)cc4n3)CC2)cc(OC)c1OC	-5.33
CCN(CC)CCOc1nc2ccccc2c2c1-c1ccc(OC)cc1C2=O	39.9
O=C(Nc1ccccc1)Nc1cccc(-n2cc(-c3ccncc3)c(-c3ccc(O)c(Cl)c3)n2)c1	82.5
CCN1CCCC1CNC(=O)c1ncc(-c2ccc(C(F)(F)F)cc2)c(NC2CCCCCC2)n1 (stereo unspecified)	58.3
COc1ccc2c(c1)O/C(=C\c1ccc([N+](=O)[O-])s1)C2=O	85.1
COc1ccc2c(c1)O/C(=C\c1ncc([N+](=O)[O-])n1C)C2=O	-77.7
CCCC1(CC(=O)O)OCCc2c1[nH]c1ccccc21 (stereo unspecified)	106
CSCCCNC(=O)c1ccc2c(c1)/C(=C/c1[nH]c(C)cc1C)C(=O)N2	-25.9
CCN(CC)CCNC(=O)c1ccc(NC(C)=O)cc1	78.7
Cc1cccc2c1O/C(=C\c1ccc([N+](=O)[O-])o1)C2=O	49
N=C(N)c1ccc(-c2ccc(-c3cccs3)o2)cc1	33.5
CC(C)C[C@H](NC(=O)[C@H](Cc1cccc2ccccc12)NS(=O)(=O)c1cccc2cccnc12)B(O)O	-36.4
Nc1c(C(=O)Nc2cccc(Br)c2)sc2nc3c(cc12)C(O)CCC3 (stereo unspecified)	-8.73
Cc1ccc(NC(=O)NC2CCCCC2)cc1	98.2
N#Cc1c(C#N)c(SSc2c(C#N)c(C#N)c(N)n2-c2ccccc2)n(-c2ccccc2)c1N	92.1
Nc1ccc2cc(S(=O)(=O)O)cc(O)c2c1N=Nc1ccc(F)cc1	129
Clc1cccc(-c2nc(-c3cccs3)no2)c1	93.1
CCCCCCCNc1nc(C=O)ncc1-c1ccc(C(F)(F)F)cc1	86.2
COc1cc(/C=C\c2cc(OC)c(OC)c(OC)c2)cc(NS(=O)(=O)c2ccc(Cl)cc2)c1OC	-5.88
Nc1c(C(=O)Nc2ccccc2)sc2nc3c(cc12)CCCC3	-8.95
CC12O[C@H](C[C@@H](OC(=O)c3ccccc3)[C@H]1O)n1c3ccccc3c3c4c(c5c6ccccc6n2c5c31)C(=O)NC4=O	-25.6
O=S(=O)(NCCNc1nccc(-c2c(-c3ccc(F)cc3)nc3sccn23)n1)c1ccc2ccccc2c1	79.5
CCCCCCCCCCCCCC[n+]1ccc(C(N)=O)cc1	52.3
CC1=C(N2CCOCC2)C(N2CCOCC2)=C(C)C(=O)C1=O	88.6
COc1cc(NC(=O)CSc2nc3ccccc3c(=O)n2CCc2ccccc2)cc(OC)c1OC	-21.8
S=C1SCC(c2ccccc2)S1 (stereo unspecified)	102
N=C(N)c1ccc(-c2ccc(-c3cccs3)s2)s1	-32.6
COc1ccc(-c2nc3sc(-c4ccccc4)c(-c4ccccc4)n3c2/C=C/C(=O)c2ccccn2)cc1	96.1
COc1ccc(-c2nsc3c2NC(=O)CC3c2ccc(F)cc2)cc1 (stereo unspecified)	53.8
COc1ccc(/C(=C2\O[C@@H]([C@H]3COC(C)(C)O3)[C@H]3OC(C)(C)O[C@@H]23)c2cc(OC)c(OC)c(OC)c2)cc1O	63.3
CC(C)(C#N)Nc1ccccc1	103
